Recorded measurements of Ki, one per entry
Molecular target: human factor VIIa (Homo sapiens)
Construct: Factor VIIa in the extrinsic pathway; purchased BiosPacific, Emeryville, Calif
Assay: Inhibition of human factor VIIa (chromogenic substrate S2288), inhibitory constant Ki
Type: biochemical
Conditions: 50 nM human factor VIIa, S2288, pH 7.6, 4 mM CaCl2, 30 minutes; read-out: Ki values for inhibition of Serine Proteases: Factor VIIa
Protocol: The effectiveness of compounds of the present invention as inhibitors of blood coagulation proteases was determined using purified human proteases and synthetic substrates following procedures similar to those described in Kettner et al. (1990). […] Thrombin and Xa determinations were made in 0.10M sodium phosphate buffer, pH 7.5, containing 0.20M NaCl, and 0.5% PEG 8000. […] The Michaelis constant, Km, for substrate hydrolysis was determined at 5° C. using the method of Lineweaver and Burk. […]
Counter-ions that a name gives are not always drawn.

## Task Fill blank: measured Ki of the compound CC1(C)C2CC3OB([C@H](CCCCN)NC(=O)Cn4nc(CCc5ccccc5)nc4COCc4ccccc4)OC3(C)C1C2 (single isomer, unassigned) [Example 2781] is ____.
## Result 500 to 50000 nM

## Task Fill blank: measured Ki of the compound NCCCC[C@H](NC(=O)Cn1nc(Cc2ccccc2)nc1-c1ccccc1)B(O)O [Example 2533] is ____.
## Result > 500000 nM

## Task Fill blank: measured Ki of the compound CC1(C)[C@@H]2C[C@H]3OB([C@H](CCCCN)NC(=O)c4ccc(-c5ccccc5)nc4)O[C@@]3(C)[C@H]1C2 [Example 468] is ____.
## Result 500 to 50000 nM

## Task Fill blank: measured Ki of the compound CC1(C)C2CC3OB([C@H](CCCCN)NC(=O)Cn4nc(Cc5ccccc5)nc4CC(=O)O)OC3(C)C1C2 (single isomer, unassigned) [Example 2430] is ____.
## Result > 500000 nM

## Task Fill blank: measured Ki of the compound CC1(C)C2CC3OB([C@H](CCCCN)NC(=O)Cn4nc(COCc5ccccc5)nc4CCc4ccccc4)OC3(C)C1C2 (single isomer, unassigned) [Example 2068] is ____.
## Result 500 to 50000 nM

Further cases:
## Task Fill blank: measured Ki of the compound CC1(C)C2CC3OB([C@H](CCCCN)NC(=O)Cn4nc(CCc5ccccc5)nc4CCc4ccccc4)OC3(C)C1C2 (single isomer, unassigned) [Example 1467] is ____.
## Result 500 to 50000 nM

## Task Fill blank: measured Ki of the compound Cc1nc(-c2ccccc2)ncc1C(=O)N[C@@H](CCCCN)B1O[C@@H]2C[C@@H]3C[C@@H](C3(C)C)[C@]2(C)O1 [Example 3458, hydrochloride] is ____.
## Result 500 to 50000 nM

###

Recorded measurements of Ki, one per entry
target: human factor Xa (Homo sapiens)
Sequence (P00742 235-488 limits assumed): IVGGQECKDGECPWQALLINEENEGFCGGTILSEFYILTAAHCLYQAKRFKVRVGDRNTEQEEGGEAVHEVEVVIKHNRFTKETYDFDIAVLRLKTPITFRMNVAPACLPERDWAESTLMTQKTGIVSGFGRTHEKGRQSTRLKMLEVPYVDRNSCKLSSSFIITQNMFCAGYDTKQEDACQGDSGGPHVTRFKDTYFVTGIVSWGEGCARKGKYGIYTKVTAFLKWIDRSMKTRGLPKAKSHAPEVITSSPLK
Sequence (P00742 41-179 partner limits assumed): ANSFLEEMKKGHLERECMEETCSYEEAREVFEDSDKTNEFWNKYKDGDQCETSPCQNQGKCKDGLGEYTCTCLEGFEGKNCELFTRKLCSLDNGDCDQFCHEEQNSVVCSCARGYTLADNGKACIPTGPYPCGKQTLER
Counter-ions that a name gives are not always drawn.

## Task Item `COC(=O)NS(=O)(=O)c1ccccc1-c1ccc(C(=O)N[C@@H](CCCNC(=N)N)B2O[C@@H]3C[C@@H]4C[C@@H](C4(C)C)[C@]3(C)O2)c(C)c1` with human factor Xa (Homo sapiens) - Ki?
## Result < 500 nM

## Task Item CSCc1nc(Cc2ccccc2)nn1CC(=O)N[C@@H](CCCCN)B1OC2CC3CC(C3(C)C)C2(C)O1 (single isomer, unassigned) with human factor Xa (Homo sapiens) - Ki?
## Result 500 to 50000 nM

## Task Item `CSCc1nc(Cc2ccccc2)n(CC(=O)N[C@@H](CCCCN)B2O[C@@H]3C[C@@H]4C[C@@H](C4(C)C)[C@]3(C)O2)n1` with human factor Xa (Homo sapiens) - Ki?
## Result 500 to 50000 nM

## Task Item `Cc1cc(-c2ccccc2S(N)(=O)=O)ccc1C(=O)N[C@@H](CCCNC(=N)N)B1O[C@@H]2C[C@@H]3C[C@@H](C3(C)C)[C@]2(C)O1` with human factor Xa (Homo sapiens) - Ki?
## Result < 500 nM

## Task Item `CC1(C)[C@@H]2C[C@H]3OB([C@H](CCCSC(=N)N)NC(=O)c4cccc(-c5ccccc5)c4)O[C@@]3(C)[C@H]1C2` with human factor Xa (Homo sapiens) - Ki?
## Result < 500 nM

## Task Item CC1(C)C2CC3OB([C@H](CCCCN)NC(=O)Cn4cnc(-c5ccccc5)n4)OC3(C)C1C2 (single isomer, unassigned) with human factor Xa (Homo sapiens) - Ki?
## Result 500 to 50000 nM

## Task Item Cc1nc(-c2ccccc2)ncc1C(=O)N[C@@H](CCCNC(=N)N)B1O[C@@H]2C[C@@H]3C[C@@H](C3(C)C)[C@]2(C)O1 [Example 3538, hydrochloride] with human factor Xa (Homo sapiens) - Ki?
## Result 500 to 50000 nM

## Task Item `CC1(C)[C@@H]2C[C@H]3OB([C@H](CCCNC(=N)N)NC(=O)c4ccc(-c5ccccc5)cc4)O[C@@]3(C)[C@H]1C2` with human factor Xa (Homo sapiens) - Ki?
## Result 500 to 50000 nM

## Task Item `CC1(C)[C@@H]2C[C@H]3OB([C@H](CCCCN)NC(=O)Cn4nc(COCc5ccccc5)nc4Cc4ccccc4)O[C@@]3(C)[C@H]1C2` with human factor Xa (Homo sapiens) - Ki?
## Result 500 to 50000 nM

## Task Item `Cc1cc(-c2cccc(NC(=O)OC(C)(C)C)c2)ccc1C(=O)N[C@@H](CCCNC(=N)N)B1O[C@@H]2C[C@@H]3C[C@@H](C3(C)C)[C@]2(C)O1` with human factor Xa (Homo sapiens) - Ki?
## Result < 500 nM

## Task Item CC1(C)C2CC3OB([C@H](CCCNC(=N)N)NC(=O)Cn4nc(Cc5ccccc5)nc4Cc4ccccc4)OC3(C)C1C2 (single isomer, unassigned) with human factor Xa (Homo sapiens) - Ki?
## Result 500 to 50000 nM

## Task Item CC1(C)C2CC3OB([C@H](CCCCN)NC(=O)Cn4nc(Cc5ccccc5)nc4CC(=O)O)OC3(C)C1C2 (single isomer, unassigned) with human factor Xa (Homo sapiens) - Ki?
## Result 500 to 50000 nM

## Task Item CC1(C)[C@@H]2C[C@H]3OB([C@H](CCCCN)NC(=O)Cn4nc(CC#N)nc4Cc4ccccc4)O[C@@]3(C)[C@H]1C2 [Example 898, hydrochloride] with human factor Xa (Homo sapiens) - Ki?
## Result 500 to 50000 nM

## Task Item `CC1(C)[C@@H]2C[C@H]3OB([C@H](CCCCN)NC(=O)c4cccc(-c5ccccc5)c4)O[C@@]3(C)[C@H]1C2` with human factor Xa (Homo sapiens) - Ki?
## Result 500 to 50000 nM

## Task Item CC1(C)C2CC3OB([C@H](CCCCN)NC(=O)Cn4nc(Cc5ccccc5)nc4CC#N)OC3(C)C1C2 (single isomer, unassigned) with human factor Xa (Homo sapiens) - Ki?
## Result 500 to 50000 nM

## Task Item CC1(C)C2CC3OB([C@H](CCCCN)NC(=O)Cn4nc(CCc5ccccc5)nc4COCc4ccccc4)OC3(C)C1C2 (single isomer, unassigned) with human factor Xa (Homo sapiens) - Ki?
## Result 500 to 50000 nM

## Task Item `CC1(C)[C@@H]2C[C@H]3OB([C@H](CCCCN)NC(=O)Cn4nc(CO)nc4Cc4ccccc4)O[C@@]3(C)[C@H]1C2` with human factor Xa (Homo sapiens) - Ki?
## Result > 500000 nM

## Task Item `CC(C)(C)NS(=O)(=O)c1ccccc1-c1ccc(C(=O)N[C@@H](CCCNC=N)B2O[C@@H]3C[C@@H]4C[C@@H](C4(C)C)[C@]3(C)O2)cc1` with human factor Xa (Homo sapiens) - Ki?
## Result < 500 nM

###

Recorded measurements of Ki, one per entry
Molecular target: human factor VIIa (Homo sapiens, UniProt P08709)
Construct: Factor VIIa in the extrinsic pathway; purchased BiosPacific, Emeryville, Calif
Sequence (P08709 213-466 limits assumed): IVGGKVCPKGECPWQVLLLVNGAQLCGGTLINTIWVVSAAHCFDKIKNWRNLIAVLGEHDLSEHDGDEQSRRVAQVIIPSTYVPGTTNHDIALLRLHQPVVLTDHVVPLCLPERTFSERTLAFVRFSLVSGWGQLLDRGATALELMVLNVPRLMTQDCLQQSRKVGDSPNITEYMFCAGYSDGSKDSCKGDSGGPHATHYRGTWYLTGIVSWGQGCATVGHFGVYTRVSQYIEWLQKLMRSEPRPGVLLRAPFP
Sequence (P08709 61-212 partner limits assumed): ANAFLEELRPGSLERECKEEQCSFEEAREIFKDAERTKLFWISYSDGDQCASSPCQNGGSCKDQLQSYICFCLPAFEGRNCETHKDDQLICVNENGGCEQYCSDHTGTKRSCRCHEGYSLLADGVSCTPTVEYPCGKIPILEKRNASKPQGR
Assay: Inhibition of human factor VIIa (chromogenic substrate S2288), inhibitory constant Ki
Format: biochemical
Settings: 50 nM human factor VIIa, S2288, pH 7.6, 4 mM CaCl2, 30 minutes; read-out: Ki values for inhibition of Serine Proteases: Factor VIIa

Field: example entries. Status: answers known.
## Task Item `CC1(C)[C@@H]2C[C@H]3OB([C@H](CCCNC(=N)N)NC(=O)c4ccc(-c5ccccc5)c([N+](=O)[O-])c4)O[C@@]3(C)[C@H]1C2` with human factor VIIa (Homo sapiens, UniProt P08709) - Ki?
## Result < 500 nM

## Task Item `CC(C)(C)NS(=O)(=O)c1ccccc1-c1ccc(C(=O)N[C@@H](CCCNC(=N)N)B2O[C@@H]3C[C@@H]4C[C@@H](C4(C)C)[C@]3(C)O2)c([N+](=O)[O-])c1` with human factor VIIa (Homo sapiens, UniProt P08709) - Ki?
## Result < 500 nM

## Task Item `CC1(C)[C@@H]2C[C@H]3OB([C@H](CCCCN)NC(=O)c4cccc(-c5ccccc5)c4)O[C@@]3(C)[C@H]1C2` with human factor VIIa (Homo sapiens, UniProt P08709) - Ki?
## Result < 500 nM

## Task Item CC1(C)C2CC3OB([C@H](CCCCN)NC(=O)Cn4nc(CCc5ccccc5)nc4CO)OC3(C)C1C2 (single isomer, unassigned) with human factor VIIa (Homo sapiens, UniProt P08709) - Ki?
## Result < 500 nM

## Task Item CC1(C)C2CC3OB([C@H](CCCNC(=N)N)NC(=O)Cn4nc(-c5cccc([N+](=O)[O-])c5)nc4Cc4ccccc4)OC3(C)C1C2 (single isomer, unassigned) with human factor VIIa (Homo sapiens, UniProt P08709) - Ki?
## Result 500 to 50000 nM

Okay, next one:
## Task Item `Cc1cc(-c2ccccc2S(N)(=O)=O)ccc1C(=O)N[C@@H](CCCNC(=N)N)B1O[C@@H]2C[C@@H]3C[C@@H](C3(C)C)[C@]2(C)O1` with human factor VIIa (Homo sapiens, UniProt P08709) - Ki?
## Result 500 to 50000 nM
